Reference for the values: patent US12090146B2

# targetDesc: hKv3.1 (Homo sapiens, UniProt P48547)
# Construct: expressed in transfected cells
# Sequence (P48547 whole entry): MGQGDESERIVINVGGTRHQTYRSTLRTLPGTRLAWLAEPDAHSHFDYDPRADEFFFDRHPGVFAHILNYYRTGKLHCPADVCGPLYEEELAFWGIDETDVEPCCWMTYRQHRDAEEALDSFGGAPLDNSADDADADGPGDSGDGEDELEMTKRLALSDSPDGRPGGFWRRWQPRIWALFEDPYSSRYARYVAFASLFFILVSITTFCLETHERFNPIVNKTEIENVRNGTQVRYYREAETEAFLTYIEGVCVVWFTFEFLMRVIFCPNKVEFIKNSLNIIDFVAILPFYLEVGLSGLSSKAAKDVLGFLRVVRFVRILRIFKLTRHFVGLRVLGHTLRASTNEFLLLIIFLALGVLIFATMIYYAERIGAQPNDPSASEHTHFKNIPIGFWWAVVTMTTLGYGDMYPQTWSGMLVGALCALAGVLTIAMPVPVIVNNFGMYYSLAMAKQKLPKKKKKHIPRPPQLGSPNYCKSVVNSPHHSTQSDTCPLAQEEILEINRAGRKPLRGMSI
# methodSummary: Automated patch clamp (Patchliner) whole-cell electrophysiology, Kv3.1
# Format: cell-based
# testSettings: 10 μM compound; voltage shift of the IV curve at V1/2; CHO-K1 cells stably expressing hKv3.1
Under this convention, 1 (yes) denotes Kv3.1 Activity at 10 μM Voltage Shift (mV) strictly below -4 mV and 0 (no) denotes Kv3.1 Activity at 10 μM Voltage Shift (mV) at or above -4 mV.

Prompt line: Strictly below -4 mV in Kv3.1 Activity at 10 μM Voltage Shift (mV)? COc1cc(Oc2cc(N3C(=O)NC(C)(C)C3=O)ccn2)ccc1C(F)(F)F [Example 4]
Response line: 1 (yes)

Prompt line: A record lists O=C1NC2(CCCCC2)C(=O)N1c1ccnc(Oc2ccc3c(c2)OCO3)c1 [Example 35] . Is its Kv3.1 Activity at 10 μM Voltage Shift (mV) below -4 mV?
Response line: 0 (no)

Prompt line: Is Kv3.1 Activity at 10 μM Voltage Shift (mV) strictly under -4 mV for the entry CC[C@H]1NC(=O)N(c2cccc(Oc3ccc(OC)c(C)c3)n2)C1=O [Example 51] ?
Response line: 0 (no)

Prompt line: Answer whether the compound Cc1ccc(Oc2cc(N3C(=O)NC4(CCCCC4)C3=O)ccn2)cc1OC(F)(F)F [Example 29] has Kv3.1 Activity at 10 μM Voltage Shift (mV) strictly less than -4 mV
Response line: 0 (no)

Prompt line: Record CC[C@H]1NC(=O)N(c2cncc(Oc3ccc(C)c(OC)c3)c2)C1=O [Example 38] : is its Kv3.1 Activity at 10 μM Voltage Shift (mV) strictly below -4 mV?
Response line: 0 (no)

Prompt line: I wonder whether CC(C)c1cc(Oc2cccc(N3C(=O)NC(C)(C)C3=O)n2)ccc1C#N [Example 77] has Kv3.1 Activity at 10 μM Voltage Shift (mV) below -4 mV. Can you tell?
Response line: 0 (no)

Prompt line: Please indicate whether the reported Kv3.1 Activity at 10 μM Voltage Shift (mV) of CC[C@@]1(C)NC(=O)N(c2ccnc(Oc3ccc(C)c(F)c3)c2)C1=O [Example 12] is strictly below -4 mV.
Response line: 0 (no)

Prompt line: Strictly below -4 mV in Kv3.1 Activity at 10 μM Voltage Shift (mV)? CC[C@@]1(C)NC(=O)N(c2ccnc(Oc3ccc(Cl)c(OC)c3)c2)C1=O [Example 15]
Response line: 0 (no)

Prompt line: Determine whether this compound shows Kv3.1 Activity at 10 μM Voltage Shift (mV) lower than -4 mV (ties excluded): CC[C@@]1(C)NC(=O)N(c2cccc(Oc3ccc(C)c(OC)c3)n2)C1=O [Example 58]
Response line: 1 (yes)

Prompt line: Lab log: compare recorded Kv3.1 Activity at 10 μM Voltage Shift (mV) with -4 mV; is it strictly lower for CC[C@@]1(C)NC(=O)N(c2cccc(Oc3ccc(C)c(C)c3)n2)C1=O [Example 65] ?
Response line: 0 (no)

Prompt line: Hello, is Kv3.1 Activity at 10 μM Voltage Shift (mV) of the following compound strictly smaller than -4 mV? CC[C@H]1NC(=O)N(c2cccc(Oc3cc(OC)ccc3C)n2)C1=O [Example 52]
Response line: 0 (no)
